Biological target: B-Raf V600E (Homo sapiens (Human), UniProt P15056, V600E)
Sequence (P15056 whole entry V600E): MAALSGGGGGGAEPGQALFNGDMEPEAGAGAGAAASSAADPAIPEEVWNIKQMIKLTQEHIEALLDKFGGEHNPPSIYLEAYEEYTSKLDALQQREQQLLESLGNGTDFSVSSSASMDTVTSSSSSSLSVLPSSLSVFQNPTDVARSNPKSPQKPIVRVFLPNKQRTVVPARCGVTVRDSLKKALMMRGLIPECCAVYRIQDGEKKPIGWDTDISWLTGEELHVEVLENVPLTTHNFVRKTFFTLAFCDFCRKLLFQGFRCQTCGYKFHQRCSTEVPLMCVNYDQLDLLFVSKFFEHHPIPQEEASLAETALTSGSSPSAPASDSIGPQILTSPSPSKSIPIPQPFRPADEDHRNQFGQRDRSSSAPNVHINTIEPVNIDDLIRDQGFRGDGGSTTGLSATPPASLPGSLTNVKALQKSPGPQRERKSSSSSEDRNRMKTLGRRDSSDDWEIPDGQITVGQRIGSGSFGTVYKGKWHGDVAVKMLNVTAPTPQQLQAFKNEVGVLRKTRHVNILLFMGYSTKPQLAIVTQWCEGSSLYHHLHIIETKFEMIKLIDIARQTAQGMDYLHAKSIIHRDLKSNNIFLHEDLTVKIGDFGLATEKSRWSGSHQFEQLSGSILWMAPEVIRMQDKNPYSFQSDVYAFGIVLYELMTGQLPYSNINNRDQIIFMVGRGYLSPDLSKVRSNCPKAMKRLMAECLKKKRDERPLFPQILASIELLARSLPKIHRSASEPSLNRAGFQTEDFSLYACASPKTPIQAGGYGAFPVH
Assay: B-Raf V600E kinase activity biochemical assay (AlphaScreen, biotin-MEK1 phosphorylation)
Conditions: B-Raf V600E
Measure name: IC50

Worked cases, IC50 given:
Compound | Measure name | Recorded measurement
O=C(c1c(F)ccc(NS(=O)(=O)c2ccccc2)c1F)c1c[nH]c2nccc(C(F)(F)F)c12 [P-2017] | IC50 | > 0.1 µM
CCCS(=O)(=O)Nc1ccc(F)c(C(=O)c2c[nH]c3nccc(NC4CCOCC4)c23)c1F [P-2013] | IC50 | < 0.1 µM
CCCS(=O)(=O)Nc1ccc(F)c(C(=O)c2c[nH]c3ncc(Cl)c(OC)c23)c1F [P-2006] | IC50 | < 0.1 µM

Q) Suppose we examine the compound N#Cc1c(Cl)cnc2[nH]cc(C(=O)c3c(F)ccc(NS(=O)(=O)c4ccc(C(F)(F)F)cc4)c3F)c12 [P-2010] ; what IC50 value has been reported?
A) < 0.1 µM
